These data points were gathered from ChEMBL document CHEMBL3507680.

measurement-protocol: Human HepG2 cell viability assay in 384 well format
Assay type: toxicity, cell-based
Design: dose 125 nL, time 70.5 hour; concentration not given beside the values
condition-info: HepG2 cells, read-out: Inhibition
cytotoxicity at 70.5 h values, listed per item

>  <compound>
Cc1c[nH]nc1C1CCCCN1C(=O)CC1(O)CCCCC1 (stereo unspecified)

>  <cytotoxicity at 70.5 h / %>
-8.79

$$$$
>  <compound>
O=C1CC(N(C(=O)c2ccc(-n3cccc3)cc2)C2CC2)C(=O)N1 (stereo unspecified)

>  <cytotoxicity at 70.5 h / %>
-4.68

$$$$
>  <compound>
CC(C)OCCOCc1cccc(NC(=O)NCc2ccccn2)c1

>  <cytotoxicity at 70.5 h / %>
-8.39

$$$$
>  <compound>
Cc1ccc(C(=O)NC2CCN(CC(=O)N(C)c3ccccc3)CC2)o1

>  <cytotoxicity at 70.5 h / %>
-4.99

$$$$
>  <compound>
CN(Cc1cscn1)Cc1cc2c(cc1Br)OCO2

>  <cytotoxicity at 70.5 h / %>
-4.04

$$$$
>  <compound>
CO[C@H]1C[C@@H](O)C12CCN(C(=O)NCc1ccco1)CC2

>  <cytotoxicity at 70.5 h / %>
17.8

$$$$
>  <compound>
Cc1oc(C(=O)O)cc1S(=O)(=O)Nc1c(F)cccc1-n1cccn1

>  <cytotoxicity at 70.5 h / %>
-0.99

$$$$
>  <compound>
CC(C)(CNc1cc(F)ccc1F)S(C)(=O)=O

>  <cytotoxicity at 70.5 h / %>
0.249

$$$$
>  <compound>
Cc1n[nH]c2c1C(c1ccc3c(c1)OCCO3)SCC(=O)N2 (stereo unspecified)

>  <cytotoxicity at 70.5 h / %>
-0.607

$$$$
>  <compound>
COc1ccc(-c2nnc(SC(C)C(=O)NCC(C)C)[nH]2)c(OC)c1 (stereo unspecified)

>  <cytotoxicity at 70.5 h / %>
56.9

$$$$
>  <compound>
Oc1nnc(-c2ccccc2)c2sc(N3CCCCC3)nc12

>  <cytotoxicity at 70.5 h / %>
0.482

$$$$

###

cytotoxicity at 70.5 h values, listed per item
measurement-protocol: Human HepG2 cell viability assay in 384 well format
Type: toxicity, cell-based
Design: dose 125 nL, time 70.5 hour; concentration not given beside the values
condition-info: HepG2 cells, read-out: Inhibition

>  <compound>
COCCN1CCC(CNC(=O)C2(c3cc(C)cc(C)c3)CCC2)C1 (configuration not stated)

>  <cytotoxicity at 70.5 h / %>
-5.65

$$$$
>  <compound>
O=S(=O)(N1CCCCC1)N1CCC(Oc2cnccn2)CC1

>  <cytotoxicity at 70.5 h / %>
-2.24

$$$$
>  <compound>
O=S1(=O)CCC(n2cc(C3=CCN(CCn4cccc4)CC3)cn2)C1 (configuration not stated)

>  <cytotoxicity at 70.5 h / %>
26.8

$$$$
>  <compound>
CCNCCOc1ccc(-c2cc(N)nc3[nH]ccc23)cc1

>  <cytotoxicity at 70.5 h / %>
-10.1

$$$$
>  <compound>
COc1ccc(C)cc1CN1CCN(Cc2nccn2C)CC1

>  <cytotoxicity at 70.5 h / %>
1.89

$$$$
>  <compound>
CC1CCCCN1C(=O)c1n[nH]c(=O)c2ccccc12 (configuration not stated)

>  <cytotoxicity at 70.5 h / %>
32.4

$$$$
>  <compound>
CCN(CC1CCOC1)C(=O)CCc1nc(C(C)(C)C)no1 (configuration not stated)

>  <cytotoxicity at 70.5 h / %>
-10.1

$$$$
>  <compound>
O=C(c1cocn1)N1CC[C@H]2OCC[C@@]2(COc2ncccc2F)C1

>  <cytotoxicity at 70.5 h / %>
-15.1

$$$$
>  <compound>
N#Cc1ccnc(N2CCN(C(=O)c3ccc4c(c3)CCO4)CC2)c1

>  <cytotoxicity at 70.5 h / %>
-3.35

$$$$
>  <compound>
OCCN1CCC(CNCc2cn(-c3ccccc3)nn2)CC1

>  <cytotoxicity at 70.5 h / %>
-12.5

$$$$
>  <compound>
COCC1CN(C(=O)Cc2ccsc2)Cc2c1cnn2C (configuration not stated)

>  <cytotoxicity at 70.5 h / %>
25.8

$$$$
>  <compound>
Fc1ccc2c(c1)CCC2NCc1ccc(N2CCOCC2)cc1 (configuration not stated)

>  <cytotoxicity at 70.5 h / %>
7.55

$$$$

###

measurement-protocol: Human HepG2 cell viability assay in 384 well format
Assay type: toxicity, cell-based
Set-up: dose 125 nL, time 70.5 hour; concentration not given beside the values
condition-info: HepG2 cells, read-out: Inhibition
cytotoxicity at 70.5 h values, listed per item

>  <compound>
COc1ccccc1CN1CCC2(CCC(C(=O)N(C)C)O2)CC1 (configuration not stated)

>  <cytotoxicity at 70.5 h [%]>
-8.03

$$$$
>  <compound>
CCCn1ncnc1C(C)NC(=O)C1CCN(CC(N)=O)CC1 (configuration not stated)

>  <cytotoxicity at 70.5 h [%]>
-6.92

$$$$
>  <compound>
CCCn1nccc1NC(=O)c1ccc(Cl)c(N2CCNC2=O)c1

>  <cytotoxicity at 70.5 h [%]>
-2.55

$$$$
>  <compound>
Cc1nc(N)sc1C(=O)N1Cc2ccccc2OC2(CCOCC2)C1

>  <cytotoxicity at 70.5 h [%]>
31.2

$$$$
>  <compound>
CCN(Cc1cccc(Cl)c1)Cn1nc(C)c2c(C)onc2c1=O

>  <cytotoxicity at 70.5 h [%]>
25.1

$$$$
>  <compound>
COc1cc(C(=O)NCc2ccc3c(c2)CCCN3C)cc(OC)c1Br

>  <cytotoxicity at 70.5 h [%]>
-8.61

$$$$
>  <compound>
O=c1[nH]nc2nc(N3CCOCC3)ccn12

>  <cytotoxicity at 70.5 h [%]>
-1

$$$$
>  <compound>
CCOC1CCCN(C(=O)c2ccccc2NCc2cccnc2)C1 (configuration not stated)

>  <cytotoxicity at 70.5 h [%]>
15.9

$$$$
>  <compound>
COc1ccccc1CC1CCCN(CCN2CCOC2=O)C1 (configuration not stated)

>  <cytotoxicity at 70.5 h [%]>
-7.17

$$$$
>  <compound>
OCC1(Cc2cccc(Cl)c2)CCCN(c2ncccn2)C1 (configuration not stated)

>  <cytotoxicity at 70.5 h [%]>
28.5

$$$$
>  <compound>
Cc1nnnn1-c1cc(NCc2cc(C#N)ccc2F)ccc1F

>  <cytotoxicity at 70.5 h [%]>
-10.8

$$$$
>  <compound>
CN(C)C(=O)CCNC(=O)c1cnc(-c2ccccc2)nc1

>  <cytotoxicity at 70.5 h [%]>
-5.51

$$$$

###

measurement-protocol: Human HepG2 cell viability assay in 384 well format
Assay type: toxicity, cell-based
Parameters: dose 125 nL, time 70.5 hour; concentration not given beside the values
condition-info: HepG2 cells, read-out: Inhibition

>  <compound>
O=C(CNc1cc(F)ccc1OC(F)F)NCC(F)(F)F

>  <cytotoxicity at 70.5 h / %>
2.53

$$$$
>  <compound>
CC(=O)Nc1ccc(Oc2cccc(CN3CCCC3)c2)cc1

>  <cytotoxicity at 70.5 h / %>
-1.93

$$$$
>  <compound>
CN(C)C(=O)COCC1CN(Cc2ccco2)Cc2ncn(C)c21 (configuration not stated)

>  <cytotoxicity at 70.5 h / %>
-0.299

$$$$
>  <compound>
CCc1cc(N2CCC(n3cc(C(=O)NCC(C)C)nn3)CC2)ncn1

>  <cytotoxicity at 70.5 h / %>
0.723

$$$$
>  <compound>
CCC(=O)c1ccc(OCC(=O)NC(C)Cc2cc(C)n[nH]2)cc1 (configuration not stated)

>  <cytotoxicity at 70.5 h / %>
-8.59

$$$$
>  <compound>
CC(C)(C)NC(=O)C1CSCN1S(=O)(=O)c1cccc(F)c1 (configuration not stated)

>  <cytotoxicity at 70.5 h / %>
-9.43

$$$$
>  <compound>
CCC1c2ccccc2CCN1CCNS(C)(=O)=O (configuration not stated)

>  <cytotoxicity at 70.5 h / %>
-4.6

$$$$
>  <compound>
COc1ccc(CCN(C)C2CCCN(Cc3noc(C)n3)C2)cc1 (configuration not stated)

>  <cytotoxicity at 70.5 h / %>
25

$$$$
>  <compound>
COCCN1CCC(CNC(=O)C2(c3cccc(Cl)c3)CC2)C1 (configuration not stated)

>  <cytotoxicity at 70.5 h / %>
-0.451

$$$$
>  <compound>
CCCn1cc2c(C(F)F)cc(SCC(=O)O)nc2n1

>  <cytotoxicity at 70.5 h / %>
-8.88

$$$$
>  <compound>
CC(c1nc(C2CC2)no1)N1CCN(Cc2nnc(C3CC3)o2)CC1 (configuration not stated)

>  <cytotoxicity at 70.5 h / %>
-2.67

$$$$
>  <compound>
COc1cccn(C(C)C(=O)NC2CCCC2)c1=O (configuration not stated)

>  <cytotoxicity at 70.5 h / %>
-1.93

$$$$
